Values were extracted from patent US20130251728A1.

Reported koff values for the following binders.
- targetOrSystem: T1, mfGCGR-hFc (cynomolgus monkey (Macaca fascicularis))
- T1 construct: also called mfGCGR-N-terminal hFc
- T1 sequence (chain, as listed by the source limits assumed): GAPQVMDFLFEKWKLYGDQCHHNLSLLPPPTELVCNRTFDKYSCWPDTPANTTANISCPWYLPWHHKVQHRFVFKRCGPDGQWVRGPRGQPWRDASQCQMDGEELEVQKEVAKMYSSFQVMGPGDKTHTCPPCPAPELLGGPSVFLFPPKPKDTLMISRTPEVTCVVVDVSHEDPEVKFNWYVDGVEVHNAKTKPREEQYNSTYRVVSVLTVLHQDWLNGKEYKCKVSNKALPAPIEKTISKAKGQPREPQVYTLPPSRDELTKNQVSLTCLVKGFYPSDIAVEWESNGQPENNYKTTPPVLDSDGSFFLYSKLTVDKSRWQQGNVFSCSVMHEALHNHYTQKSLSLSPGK
- assayRemarks: SPR Biacore T100, 37C, mAb captured, antigen flowed
Use s⁻¹ as the unit, but write only the number.

[[record]]
binder = "H4H1765N (antibody, V domains shown, Anti-GCGR antibody from hybridoma; the controls are called isotype-matched hIgG4) VH: EEQLVESGGDLVQPGGSLRLSCAASGFTLSSYEMNWVRQAPGKGLEWVSYISRGGSLIHYTDSVKGRFTISRDNAKNSLYLQMNSLRAEDTAVYYCVRDPAARYHYYYHGMDVWGQGTTVTVSS VL: DIVMTQSPLSLPVTPGEPASISCRSSQSLLHNNGYNYLDWYLQKPGQSPQLLIYLGSSRASGVPDRFSGSGSGTDFILKISRVEAEDVGVYYCMQALQTPWTFGRGTKVEIK"
measurement = "1.48e-05"


Here is another binder to look at.
Need koff of H4H1339P (antibody, V domains shown, Fully human anti-GCGR antibody; the controls are called isotype-matched hIgG4) VH: EVQLVESGGGMVQPGGSLRLSCAASGFTSSNYDMHWVRQATGKGLEWVSSIDTAGDTYYPDSVKGRFIISRENAKNSLYLQMNSLRAGDTAVYYCTREPRNYEILTGHYHYHGMDIWGQGTTVTVS VL: AIQMTQSPSSLSASVGDRVTITCRASQAIRNDLGWYQQKPGKAPKLLIYTAFSLQSGVPSRFSGSKSGTDFTLTISSLQPEDFATYYCLQDYTNPRTFGQGTKVEIK , thanks.
0.000107
